Target: MMP-14 (Homo sapiens)
Test: MMP-14 enzyme inhibition assay (coumarin-labelled peptide substrate)
Type: biochemical
Conditions: @ 0.1 μM; read-out: percentage inhibition MMP14
Protocol: Compounds of the invention were tested to assess their activities as inhibitors of MMP-1, MMP-2, MMP-9, MMP-14, MMP-12 and TACE. MMP-9 Assay Protocol […] The assay was performed in a total volume of 100 μL per well in 96-well microtitre plates. […] The fluorescence at 405 nm was measured immediately with an SLT Fluostar fluorometer (SL T Labinstruments GmbH, Grödig, Austria) using 320 nm excitation, without stopping the reaction. […]

compound | system.tested | inhibition at 0.1 µM / %
CC(C)(C)OC(=O)N1CCC[C@@H]1[C@@H](CS(=O)(=O)N1CCc2cc(Cl)c(Cl)cc2C1)N(O)C=O (racemic) | MMP-14 (Homo sapiens) | 5
O=CN(O)C(CS(=O)(=O)N1CCc2ccc(-c3ccncc3)cc2C1)C1CCCC1 (centres unmarked) | MMP-14 (Homo sapiens) | 19
CCC(CC)C(CS(=O)(=O)N1CCc2cc(C(C)C)ccc2C1)N(O)C=O (centres unmarked) | MMP-14 (Homo sapiens) | 7
O=CN(O)C(CCc1cccnc1)CS(=O)(=O)N1CCc2ccc(Cl)cc2C1 (centres unmarked) | MMP-14 (Homo sapiens) | 12
CCC(CC)C(CS(=O)(=O)N1CCc2cc(C(F)(F)F)ccc2C1)N(O)C=O (centres unmarked) | MMP-14 (Homo sapiens) | 8
O=CN(O)[C@H](CS(=O)(=O)N1CCc2ccc(Cl)cc2C1)[C@H]1CCCO1 | MMP-14 (Homo sapiens) | 7
CC(C)(C)CC(CS(=O)(=O)N1CCc2cc(Cl)c(Cl)cc2C1)N(O)C=O (centres unmarked) | MMP-14 (Homo sapiens) | 15
CC(C)c1ccc2c(c1)CCN(S(=O)(=O)CC([C@H]1COC(C)(C)O1)N(O)C=O)C2 (some centres unmarked) | MMP-14 (Homo sapiens) | 13
